- study_target: T1, Human CD137 ECD (human)
- T1 construct: C-terminal His-tag and biotin acceptor peptide are in the entry; also called human CD137 extracellular domain; recombinant human CD137
- T1 sequence (chain, as listed by the source limits assumed): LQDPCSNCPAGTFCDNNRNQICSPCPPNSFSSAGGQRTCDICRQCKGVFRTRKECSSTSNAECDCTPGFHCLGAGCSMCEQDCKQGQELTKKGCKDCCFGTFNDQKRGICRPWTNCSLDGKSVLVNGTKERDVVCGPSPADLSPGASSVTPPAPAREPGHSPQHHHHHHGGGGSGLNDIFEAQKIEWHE
- assay_overview: SPR Biacore T200, 37 C, Ab captured
Task for the reader: assign each of the following binders its reported pKd.
Please note pKd is a logarithmic value: minus log10 of concentration in mol/L. Answer with that number alone.

Query: Field request: pKd | item: H1673L0943 (antibody, V domains shown) VH: QVQLVESGGGLVQPGRSLRLSCAASGFVFSNVWFHWVRQAPGKGLEWVAQIKDKWNAYADYYAPSVKERFTISRDDSKNSIYLQMNSLKTEDTAVYYCHYIHYASASTLLPAEGIDAWGQGTTVTVSS VL: DIVMTQSPLSLPVTPGEPASISCQPSEEVVHMNRNTYLHWYQQKPGQAPRLLIYKVSNLFPGVPDRFSGSGSGTDFTLKISRVEAEDVGVYYCAQGTHHPFTFGQGTKLEIK
Result: 7.25

Query: Field request: pKd | item: H1572L0581 (antibody, V domains shown) VH: QVQLVESGGGLVQPGRSLRLSCAASGFKFSNVWFHWVRQAPGKGLEWVAQIKDKYNAYAAYYAPSVKGRFTISRDDSKNSIYLQMNSLKTEDTAVYYCHYVHYASASTLLPAEGVDAWGQGTTVTVSS VL: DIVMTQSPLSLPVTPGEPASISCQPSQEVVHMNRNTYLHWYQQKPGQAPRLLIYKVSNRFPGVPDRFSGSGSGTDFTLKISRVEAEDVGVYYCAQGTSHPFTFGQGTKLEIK
Result: 7.28
